A collection of binders and their measured kon
# TEST_SYSTEM: T1, VEGF (human, UniProt P15692-4 27-191, limits assumed)
# T1 construct: Biotinylated in the KDR-IgG ELISA, amine-coupled to the chip in BIAcore; also called biotinylated VEGF; vascular endothelial growth factor
# T1 sequence (P15692 other isoform, or with tags, fused parts or gaps limits assumed): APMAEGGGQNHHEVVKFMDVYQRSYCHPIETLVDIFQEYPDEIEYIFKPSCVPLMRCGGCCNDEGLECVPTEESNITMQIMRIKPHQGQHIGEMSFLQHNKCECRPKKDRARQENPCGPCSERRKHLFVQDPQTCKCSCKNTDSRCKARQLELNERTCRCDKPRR
# RUN_DESCRIPTION: BIAcore-2000 SPR, Fab over immobilized VEGF, 25 C
# Experimental: BIAcore Analysis: The VEGF-binding affinities of Fab fragments were calculated from association and dissociation rate constants measured using a BIAcore-2000™ surface plasmon resonance system (BIAcore, Inc., Piscataway, N.J.). A biosensor chip was activated for covalent coupling of VEGF using N-ethyl-N′-(3-dimethylaminopropyl)-carbodiimide hydrochloride (EDC) and N-hydroxysuccinimide (NHS) according to the supplier's (BIAcore, Inc., Piscataway, N.J.) instructions. […]

BINDER: Y0238-10 (Fab, V domains shown, From library YC-81 on the pY0192 template; Soluble Fab) VH: EVQLVESGGGLVQPGGSLRLSCAASGYTFTNYGINWVRQAPGKGLEWVGWINTYTGEPTYAADFKRRFTFSLDTSKSTAYLQMNSLRAEDTAVYYCAKYPYYRNTSHWYFDVWGQGTL VL: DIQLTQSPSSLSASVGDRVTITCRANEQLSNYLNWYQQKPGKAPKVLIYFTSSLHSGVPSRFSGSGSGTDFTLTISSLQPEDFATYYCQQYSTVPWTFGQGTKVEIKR
UNIT_ABBREVIATION: M⁻¹ s⁻¹
kon: 16000
//
BINDER: Y0238-1 (Fab, V domains shown, From library YC-81 on the pY0192 template; Soluble Fab) VH: EVQLVESGGGLVQPGGSLRLSCAASGYTFTNYGINWVRQAPGKGLEWVGWINTYTGEPTYAADFKRRFTFSLDTSKSTAYLQMNSLRAEDTAVYYCAKYPYYRGTSHWYFDVWGQGTL VL: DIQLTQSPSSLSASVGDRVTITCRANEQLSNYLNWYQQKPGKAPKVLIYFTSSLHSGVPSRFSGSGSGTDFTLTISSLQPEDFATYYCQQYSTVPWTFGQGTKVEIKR
UNIT_ABBREVIATION: M⁻¹ s⁻¹
kon: 26000
//
BINDER: Y0238-5 (Fab, V domains shown, From library YC-81 on the pY0192 template; Soluble Fab) VH: EVQLVESGGGLVQPGGSLRLSCAASGYTFTNYGINWVRQAPGKGLEWVGWINTYTGEPTYAADFKRRFTFSLDTSKSTAYLQMNSLRAEDTAVYYCAKYPYYIAKSHWYFDVWGQGTL VL: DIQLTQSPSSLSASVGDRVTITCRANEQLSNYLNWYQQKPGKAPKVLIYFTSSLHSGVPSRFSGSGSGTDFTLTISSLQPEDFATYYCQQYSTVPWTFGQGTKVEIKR
UNIT_ABBREVIATION: M⁻¹ s⁻¹
kon: 8000

Values from patent US20050112126A1
